Tested on: SK-BR-3
Test Name: CellTiter-Glo cell proliferation inhibition, SK-BR-3
Assay type: cell-based
Measurement Context: Homo sapiens; SK-BR-3 (breast cancer cell line), 72 hours; read-out: Example IC50 (µM) SK-BR-3
Reported Endpoint: IC50 (µM)
Value expressed in µM; do not type the unit.

Worked examples follow.
Compound	Assay Target	Reported Endpoint	Quantitative Readout
O=C(Nc1ccc(-c2cc3cc(F)c(-c4nnn[nH]4)cc3n2C2CCC2)cc1)C(=O)Nc1ccc(N2CCC3(CCC(O)C3)CC2)cc1 (stereo not drawn) [Example 100]	SK-BR-3	IC50	0.044
O=C(Nc1ccc(-c2csc(CO)c2)cc1)C(=O)Nc1ccc(-c2cc3cc(F)c(-c4nnn[nH]4)cc3n2C2CCC2)cc1 [Example 1]	SK-BR-3	IC50	0.14

Below: the item to evaluate.
Query string: State, for SK-BR-3, measured IC50 of the compound listed here: CC1(n2c(-c3ccc(NC(=O)C(=O)Nc4ccc(N5CCC6(CCOC6)CC5)cc4)cc3)cc3cc(F)c(-c4nnn[nH]4)cc32)CCC1 [Example 68]
Result string: 0.057

----------
Dear all, this message contains IC50 results, target or system PP5 (Homo sapiens).

Examples with answers:
Molecule	Reported Endpoint	Result
O=C(Nc1ccc(-c2ccsc2)cc1)C(=O)Nc1ccc(-c2cc3ccc(-c4nnn[nH]4)nc3n2C2CCC2)cc1 [Example 129]	IC50	> 50 µM
Cn1cc(-c2ccc(NC(=O)C(=O)Nc3ccc(-c4cc5cc(F)c(-c6noc(=O)[nH]6)cc5n4C4CCC4)cc3)cc2)cn1 [Example 123]	IC50	> 100 µM

Okay, now this molecule:
Query string: Report its IC50 with PP5 (Homo sapiens) as the test system: O=C(Nc1ccc(-c2ccsc2)cc1)C(=O)Nc1ccc(-c2cc3cc(F)c(-c4nnn[nH]4)cc3n2C2CCC2)cc1 [Example 4]
Sequence (P53041 whole entry): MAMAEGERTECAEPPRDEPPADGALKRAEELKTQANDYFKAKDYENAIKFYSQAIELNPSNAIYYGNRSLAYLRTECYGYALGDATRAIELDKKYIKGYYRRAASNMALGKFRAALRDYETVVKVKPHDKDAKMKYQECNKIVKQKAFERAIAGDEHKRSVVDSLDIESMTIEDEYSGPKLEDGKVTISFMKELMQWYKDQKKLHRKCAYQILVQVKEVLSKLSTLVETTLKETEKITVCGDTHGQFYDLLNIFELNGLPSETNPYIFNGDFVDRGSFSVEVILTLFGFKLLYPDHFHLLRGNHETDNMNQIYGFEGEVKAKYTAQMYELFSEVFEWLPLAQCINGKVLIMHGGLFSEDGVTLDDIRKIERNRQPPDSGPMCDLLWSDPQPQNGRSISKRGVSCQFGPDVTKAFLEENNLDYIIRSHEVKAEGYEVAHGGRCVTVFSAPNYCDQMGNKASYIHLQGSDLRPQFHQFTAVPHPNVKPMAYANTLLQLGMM
Result string: > 50 µM

----------
So I've got IC50 readings for CD45 (Homo sapiens, UniProt P08575), take a look.

Illustrative cases are given below, each with its answer.
O=C(Nc1ccc(-c2cc3cc(F)c(-c4nnn[nH]4)cc3n2C2CCC2)cc1)C(=O)Nc1ccc(N2CCOCC2)cc1 1.06 µM
CC1(n2c(-c3ccc(NC(=O)C(=O)Nc4ccc(N5CCC6(CCOC6)CC5)cc4)cc3)cc3cc(F)c(-c4nnn[nH]4)cc32)CCC1 3.48 µM
O=C(Nc1ccc(-c2ccsc2)cc1)C(=O)Nc1ccc(-c2cc3ccc(-c4nnn[nH]4)nc3n2C2CCC2)cc1 41.5 µM
O=C(Nc1ccc(-c2ccsc2)cc1)C(=O)Nc1ccc(-c2oc3cc(F)c(-c4nnn[nH]4)cc3c2C2CCC2)cc1 > 50 µM
O=C(Nc1ccc(-c2oc3cc(F)c(-c4nnn[nH]4)cc3c2C2CCC2)cc1)C(=O)Nc1ccc(N2CCC3(CCOC3)CC2)cc1 16.1 µM

Query string: Find the measured IC50 of O=C(Nc1ccc(-c2ccsc2)cc1)C(=O)Nc1ccc(-c2cc3cc(F)c(-c4nnn[nH]4)cc3n2C2CCC2)cc1 and report it.
Result string: > 50 µM

----------
Entries annotated with measured half-life
Test Name: Rat PK study (IV 1 mg/kg and PO 5 mg/kg)
Type: in vivo, male SD rats
Measurement Context: male, SD, rat, plasma, 1 mg/kg; IV, dose 1 mpk; read-out: IV T1/2 (converted)
Your answer should be a plain number; it is taken to be in h.

Compound	Scale Unit	Quantitative Readout
O=C(Nc1ccc(-c2cc3cc(F)c(-c4nnn[nH]4)cc3n2C2CCC2)cc1)C(=O)Nc1ccc(N2CCC(CO)CC2)cc1	h	8.49
CC1(n2c(-c3ccc(NC(=O)C(=O)Nc4ccc(N5CCC6(CCOC6)CC5)cc4)cc3)cc3cc(F)c(-c4nnn[nH]4)cc32)CCC1	h	1.63

// switching to the query compound
Query string: Answer with reported half-life of Cn1c(-c2cccc(NC(=O)C(=O)Nc3ccc(-c4ccsc4)cc3)c2)c(I)c2cc(C(=O)O)c(O)cc21 [Example 11a-1, reference compound]
Result string: 4.06

----------
Assay Target: CYP2C9 (Homo sapiens)
Construct: tissue Corning or Xenotech; host or cells: human liver microsomes
Sequence (P11712 whole entry): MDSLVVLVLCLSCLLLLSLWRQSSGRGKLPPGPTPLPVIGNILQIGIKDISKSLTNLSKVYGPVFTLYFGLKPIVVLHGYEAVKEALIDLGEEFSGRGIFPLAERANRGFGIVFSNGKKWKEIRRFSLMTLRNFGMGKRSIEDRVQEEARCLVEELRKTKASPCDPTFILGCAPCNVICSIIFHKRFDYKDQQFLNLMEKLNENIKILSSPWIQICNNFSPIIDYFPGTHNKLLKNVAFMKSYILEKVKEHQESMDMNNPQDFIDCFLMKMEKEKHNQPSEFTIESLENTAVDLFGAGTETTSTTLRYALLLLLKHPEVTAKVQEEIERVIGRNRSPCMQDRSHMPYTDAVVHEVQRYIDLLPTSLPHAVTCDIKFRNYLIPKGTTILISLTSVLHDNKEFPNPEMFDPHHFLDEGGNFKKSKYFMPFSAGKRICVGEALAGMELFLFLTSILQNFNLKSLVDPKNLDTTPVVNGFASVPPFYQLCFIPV
Test Name: CYP450 inhibition in human liver microsomes, CYP2C9
Type: in vitro ADME
Measurement Context: pH 7.4, read-out: % CYP inhibition @ 10 µM 2C9
Below, each entry is listed with its recorded inhibition at 10 min, 10 µM.
The reply should contain only the number, in %.

Use these answered entries as a reference point.
O=C(Nc1ccc(-c2cc3cc(F)c(-c4nnn[nH]4)cc3n2C2CCC2)cc1)C(=O)Nc1ccc(N2CCC(CO)CC2)cc1 -3.32
CC1(n2c(-c3ccc(NC(=O)C(=O)Nc4ccc(N5CCC6(CCOC6)CC5)cc4)cc3)cc3cc(F)c(-c4nnn[nH]4)cc32)CCC1 6.51

Next, consider the following compound.
Query string: Let me know recorded inhibition at 10 min, 10 µM for O=C(Nc1ccc(-c2cc3cc(F)c(-c4nnn[nH]4)cc3n2C2CCC2)cc1)C(=O)Nc1ccc(N2CCC3(CCOC3)CC2)cc1 , thanks.
Result string: 7.84

----------
Assay Target: SHP2 enzyme (catalytic domain, amino acid sequence 224-528) (Homo sapiens, UniProt Q06124)
Construct: purchased GenScript
Sequence (Q06124 224-528): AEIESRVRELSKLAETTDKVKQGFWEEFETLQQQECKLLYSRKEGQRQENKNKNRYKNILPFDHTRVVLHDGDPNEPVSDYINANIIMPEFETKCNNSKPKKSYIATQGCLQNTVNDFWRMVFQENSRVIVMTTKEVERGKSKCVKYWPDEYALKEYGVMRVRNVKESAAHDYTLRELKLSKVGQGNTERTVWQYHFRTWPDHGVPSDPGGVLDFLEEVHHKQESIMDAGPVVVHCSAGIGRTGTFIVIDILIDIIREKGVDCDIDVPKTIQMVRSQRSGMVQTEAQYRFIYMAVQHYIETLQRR
Test Name: SHP2 enzyme inhibition assay (DiFMUP substrate, fluorescence)
Format: biochemical
Measurement Context: SHP2 catalytic domain, DiFMUP substrate, 30 min pre-incubation; read-out: S HP2 I C50
Label scheme for IC50: LOW: < 60 nM; MID: ≥ 60 nM and < 70 nM; HIGH: ≥ 70 nM

Compound	Group Label
O=C(Nc1ccc(-c2cc3cc(F)c(-c4nnn[nH]4)cc3n2C2CCC2)cc1)C(=O)Nc1ccc(N2CCC3(COC3)C2)cc1 [Example 59]	MID
CC1(CO)CCN(c2ccc(NC(=O)C(=O)Nc3ccc(-c4cc5cc(F)c(-c6nnn[nH]6)cc5n4C4CCC4)cc3)cc2)C1 (stereo not shown) [Example 16]	LOW
CC1(CO)CCN(c2ccc(NC(=O)C(=O)Nc3ccc(-c4cc5cc(F)c(-c6nnn[nH]6)cc5n4C4(C)CC4)cc3)cc2)CC1 [Example 42]	HIGH
O=C(Nc1ccc(C2=CCOC2)cc1)C(=O)Nc1ccc(-c2cc3cc(F)c(-c4nnn[nH]4)cc3n2C2CCC2)cc1 [Example 51]	LOW
C[C@@H](O)C1CCN(c2ccc(NC(=O)C(=O)Nc3ccc(-c4cc5cc(F)c(-c6nnn[nH]6)cc5n4C4(C)CCC4)cc3)cc2)CC1 [Example 30]	HIGH
CC1(n2c(-c3ccc(NC(=O)C(=O)Nc4ccc(N5CCC6(CCOC6)CC5)cc4)cc3)cc3cc(F)c(-c4nnn[nH]4)cc32)CC1 [Example 70]	LOW
O=C(Nc1ccc(-c2cc3cc(F)c(-c4nnn[nH]4)cc3n2C2CCC2)cc1)C(=O)Nc1ccc(N2CCC3(CCC(CO)CC3)CC2)cc1 [Example 112]	HIGH
O=C(Nc1ccc(-c2cc3cc(F)c(-c4nnn[nH]4)cc3n2C2CCC2)cc1)C(=O)Nc1ccc(N2CCC3(CCC(O)CC3)CC2)cc1 [Example 108]	LOW

Query string: Dear colleague, I would appreciate it if you could identify the bin for CCC1(CO)CCN(c2ccc(NC(=O)C(=O)Nc3ccc(-c4cc5cc(F)c(-c6nnn[nH]6)cc5n4C4CCC4)cc3)cc2)CC1 [Example 43] and reply at your convenience.
Result string: LOW

Query string: Into which bin does this compound go? CC1(n2c(-c3ccc(NC(=O)C(=O)Nc4ccc(N5CC6(CCC(CO)CC6)C5)cc4)cc3)cc3cc(F)c(-c4nnn[nH]4)cc32)CCC1 [Example 86]
Result string: MID

Query string: Hello team, could you let me know which band the following compound falls into: O=C(Nc1ccc(-c2cc3cc(F)c(-c4nnn[nH]4)cc3n2C2CCC2)cc1)C(=O)Nc1ccc(N2CCC3(CC2)CC(CO)C3)cc1 [Example 96]
Result string: LOW

Query string: Band assignment needed for O=C(Nc1ccc(-c2cc3cc(F)c(-c4nnn[nH]4)cc3n2C2CCC2)cc1)C(=O)Nc1ccc(N2CCC3(CCCO3)C2)cc1 (stereo not shown) [Example 60] please.
Result string: MID

Query string: Band for CC1(n2c(-c3ccc(NC(=O)C(=O)Nc4ccc(N5CC6COCC6C5)cc4)cc3)cc3cc(F)c(-c4nnn[nH]4)cc32)CCC1 (stereo not shown) [Example 115] ?
Result string: LOW

----------
Assay Target: PTP1B (Homo sapiens)
Construct: made in house; host or cells: E. coli
Sequence (P18031 1-435): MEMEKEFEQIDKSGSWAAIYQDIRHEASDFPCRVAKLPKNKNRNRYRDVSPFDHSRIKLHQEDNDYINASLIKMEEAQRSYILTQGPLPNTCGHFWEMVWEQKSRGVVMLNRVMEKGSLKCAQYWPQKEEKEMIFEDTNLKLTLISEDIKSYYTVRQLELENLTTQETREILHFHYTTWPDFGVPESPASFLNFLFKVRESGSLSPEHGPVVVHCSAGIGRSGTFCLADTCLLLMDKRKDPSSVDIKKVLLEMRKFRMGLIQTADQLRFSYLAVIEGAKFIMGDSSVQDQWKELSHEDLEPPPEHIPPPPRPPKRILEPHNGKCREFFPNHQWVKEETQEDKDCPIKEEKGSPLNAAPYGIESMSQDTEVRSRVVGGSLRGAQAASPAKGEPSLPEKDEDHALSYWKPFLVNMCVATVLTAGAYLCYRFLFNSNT
Test Name: Tyrosine phosphatase selectivity (pNPP substrate), PTP1B
Type: biochemical
Measurement Context: selectivity ratio PTP1B over SHP2
Entries and their IC50PTP/IC50SHP2 PTP1B
Answer using only a numeral; do not append any unit.

Worked set:
Compound	Reported Endpoint	Quantitative Readout
Cn1c(-c2cccc(NC(=O)C(=O)Nc3ccc(-c4ccsc4)cc3)c2)c(I)c2cc(C(=O)O)c(O)cc21 [Example 11a-1, reference compound]	IC50PTP/IC50SHP2 PTP1B	21.2
O=C(Nc1ccc(-c2ccsc2)cc1)C(=O)Nc1ccc(-c2oc3cc(F)c(-c4nnn[nH]4)cc3c2C2CCC2)cc1	IC50PTP/IC50SHP2 PTP1B	464
O=C(Nc1ccc(-c2cc3cc(F)c(-c4nnn[nH]4)cc3n2C2CCC2)cc1)C(=O)Nc1ccc(N2CC3COCC3C2)cc1 (stereo not shown)	IC50PTP/IC50SHP2 PTP1B	6.5
O=C(Nc1ccc(-c2ccsc2)cc1)C(=O)Nc1ccc(-c2cc3cnc(-c4nnn[nH]4)nc3n2C2CCC2)cc1	IC50PTP/IC50SHP2 PTP1B	180.8
O=C(Nc1ccc(-c2cc3cc(F)c(-c4nnn[nH]4)cc3n2C2CCC2)cc1)C(=O)Nc1ccc(N2CCC3(CCOC3)CC2)cc1	IC50PTP/IC50SHP2 PTP1B	11.4
O=C(Nc1ccc(-c2ccsc2)cc1)C(=O)Nc1ccc(-c2cc3cc(F)c(-c4nnn[nH]4)nc3n2C2CCC2)cc1	IC50PTP/IC50SHP2 PTP1B	100
Cn1cc(-c2ccc(NC(=O)C(=O)Nc3ccc(-c4cc5cc(F)c(-c6nnc(C(F)(F)F)[nH]6)cc5n4C4CCC4)cc3)cc2)cn1	IC50PTP/IC50SHP2 PTP1B	139.7
O=C(Nc1ccc(-c2ccsc2)cc1)C(=O)Nc1ccc(-c2cc3cc(F)c(-c4nnn[nH]4)cc3n2C2CCC2)cc1	IC50PTP/IC50SHP2 PTP1B	110.3

Query string: Supply recorded IC50PTP/IC50SHP2 PTP1B for O=C(Nc1ccc(-c2cc3cc(F)c(-c4nnn[nH]4)cc3n2C2CCC2)cc1)C(=O)Nc1ccc(N2CCOCC2)cc1 here.
Result string: 5.8

Query string: Complete the entry with IC50PTP/IC50SHP2 PTP1B for O=C(Nc1ccc(-c2oc3cc(F)c(-c4nnn[nH]4)cc3c2C2CCC2)cc1)C(=O)Nc1ccc(N2CCC3(CCOC3)CC2)cc1
Result string: 123.1

Query string: Annotate the compound O=C(Nc1ccc(-c2ccsc2)cc1)C(=O)Nc1ccc(-c2cc3ccc(-c4nnn[nH]4)nc3n2C2CCC2)cc1 with its measured IC50PTP/IC50SHP2 PTP1B.
Result string: 144.1

Query string: Report IC50PTP/IC50SHP2 PTP1B for CC1(n2c(-c3ccc(NC(=O)C(=O)Nc4ccc(N5CCC6(CCOC6)CC5)cc4)cc3)cc3cc(F)c(-c4nnn[nH]4)cc32)CCC1
Result string: 31.3

Query string: In one line, give reported IC50PTP/IC50SHP2 PTP1B of the entry Cn1cc(-c2ccc(NC(=O)C(=O)Nc3ccc(-c4cc5cc(F)c(-c6noc(=O)[nH]6)cc5n4C4CCC4)cc3)cc2)cn1 .
Result string: 8.5
